- measured target: T1, MORC4 ATPaseCW cassette (aa 29-486) (human, UniProt Q8TE76 29-486)
- T1 construct: ATPase domain and CW domain of human MORC4, aa 29-486, cloned into pDEST15; Homodimer in the crystal with AMPPNP and Mg2+; source: E. coli Rosetta2 (DE3) pLysS or BL21 (DE3) RIL, purified (glutathione agarose, GST tag cleaved, SEC)
- T1 sequence (looked up): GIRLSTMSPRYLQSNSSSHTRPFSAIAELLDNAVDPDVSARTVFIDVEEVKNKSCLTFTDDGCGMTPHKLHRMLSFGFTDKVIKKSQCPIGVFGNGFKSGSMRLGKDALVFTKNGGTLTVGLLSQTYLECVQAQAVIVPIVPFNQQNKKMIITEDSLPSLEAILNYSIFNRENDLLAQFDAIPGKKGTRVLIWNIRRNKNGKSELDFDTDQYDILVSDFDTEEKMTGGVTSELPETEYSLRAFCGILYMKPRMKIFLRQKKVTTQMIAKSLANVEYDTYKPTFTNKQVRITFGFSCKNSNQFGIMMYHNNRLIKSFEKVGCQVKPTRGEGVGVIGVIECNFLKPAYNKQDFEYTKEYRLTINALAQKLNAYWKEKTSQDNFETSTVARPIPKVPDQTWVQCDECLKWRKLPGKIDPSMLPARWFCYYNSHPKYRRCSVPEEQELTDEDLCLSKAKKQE
- method summary: other fluorescence titration; tryptophan fluorescence, 25 °C; ATPaseCW in the presence of 601 DNA (ATPaseCW:601 DNA complex), increasing histone peptide
- assay setup: both partners purified
Where no end group is shown, it is not given here. Me3 = trimethyl
measured quantity: Kd (nM)
Report only the number, with the unit nM understood.

Indicate its recorded Kd; the binder in question is ARTK(Me3)QTARKSTG (peptide, UniProt P68431 2-13, looked up, N-terminal tail of histone H3, aa 1-12) [histone H3K4me3 peptide (aa 1-12 of H3)] 40
